Value source: paper PMC6694196

# TESTED TARGET: galectin-3 (Homo sapiens, UniProt P17931)
# Construct: full-length human galectin-3 (residues 1–250, UniProt code: P17931); His-tag (N, cleaved yes); made in house; host or cells: E. coli BL21(DE3)
# Sequence (P17931 whole entry, the tested form may be a part): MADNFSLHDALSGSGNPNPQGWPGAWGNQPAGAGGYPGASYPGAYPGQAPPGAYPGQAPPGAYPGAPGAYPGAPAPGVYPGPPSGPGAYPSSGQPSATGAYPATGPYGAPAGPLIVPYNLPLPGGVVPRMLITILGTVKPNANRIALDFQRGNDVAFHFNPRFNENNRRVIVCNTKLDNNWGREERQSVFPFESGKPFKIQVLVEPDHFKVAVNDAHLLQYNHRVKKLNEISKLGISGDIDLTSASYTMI
# MEASUREMENT PROTOCOL: Isothermal titration calorimetry (ITC) of galectin-3-ligand interaction
# Assay type: binding
# TEST PARAMETERS: galectin-3 100 µM, PBS, 25 °C, One set of sites model (F3: logistic fit)
PROPERTY: Kd (mM)
Please reply with the bare figure in mM and do not write the unit itself.

Task item: Return reported Kd. Input molecule: O=C[C@H](O)[C@@H](O)[C@@H](O)[C@H](O)CO [galactose, D-galactose]
Reply: 3.1

----------
# TESTED TARGET: galectin-2 (Homo sapiens)
# Construct: full length human galectin-2 (residues 1–132, UniProt code: P05162); 6xHis-SUMO (N, cleaved yes); made in house; host or cells: E. coli BL21(DE3)
# MEASUREMENT PROTOCOL: TFS of galectin-2-ligand interaction
# Format: binding
# TEST PARAMETERS: galectin-2 20 µM, PBS, 25 °C, mean ± SEM, n=3, read-out: KD
PROPERTY: pKd
Entry type: numeric. Quantity: pKd, the -log10 of concentration in molar units.

Task item: Please indicate recorded pKd of CC(=O)N[C@H]1C(O)O[C@H](CO)[C@@H](O[C@@H]2O[C@H](CO)[C@H](O)[C@H](O)[C@H]2O)[C@@H]1O (stereo partly shown) measured with galectin-2 (Homo sapiens).
Reply: 3.18

----------
# TESTED TARGET: galectin-2 (Homo sapiens, UniProt P05162)
# Construct: full length human galectin-2 (residues 1–132, UniProt code: P05162); 6xHis-SUMO (N, cleaved yes); made in house; host or cells: E. coli BL21(DE3)
# Sequence (P05162 1-132): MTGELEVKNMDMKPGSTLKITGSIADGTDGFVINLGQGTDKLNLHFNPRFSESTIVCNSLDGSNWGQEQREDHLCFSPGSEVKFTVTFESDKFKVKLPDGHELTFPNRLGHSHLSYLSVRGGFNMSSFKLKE
# MEASUREMENT PROTOCOL: ITC of galectin-2-ligand interaction
# Assay type: binding
# TEST PARAMETERS: ITC, galectin-2 100 µM, PBS, 25 °C, mean ± SEM, n=3; read-out: KD
PROPERTY: pKd
Entry type: numeric. Quantity: pKd, the -log10 of concentration in molar units.

Task item: Return reported pKd. Input compound: CC(=O)N[C@H]1C(O)O[C@H](CO)[C@@H](O[C@@H]2O[C@H](CO)[C@H](O)[C@H](O)[C@H]2O)[C@@H]1O (stereo partly shown)
Reply: 3.26

----------
# TESTED TARGET: galectin-3 (Homo sapiens)
# Construct: full-length human galectin-3 (residues 1–250, UniProt code: P17931); His-tag (N, cleaved yes); made in house; host or cells: E. coli BL21(DE3)
# MEASUREMENT PROTOCOL: Tryptophan fluorescence spectroscopy (TFS) of galectin-3-ligand interaction
# Format: binding
# TEST PARAMETERS: galectin-3 10 µM, PBS, 25 °C, One site-Specific binding model, mean ± SEM, n=3
PROPERTY: Kd (µM)
Please reply with the bare figure in µM and do not write the unit itself.

Task item: Please indicate recorded Kd of CC(=O)N[C@H]1C(O)O[C@H](CO)[C@@H](O[C@@H]2O[C@H](CO)[C@H](O)[C@H](O)[C@H]2O)[C@@H]1O (stereo partly shown) measured with galectin-3 (Homo sapiens).
Reply: 27.9

----------
# TESTED TARGET: galectin-3 (Homo sapiens, UniProt P17931)
# Construct: full-length human galectin-3 (residues 1–250, UniProt code: P17931); His-tag (N, cleaved yes); made in house; host or cells: E. coli BL21(DE3)
# MEASUREMENT PROTOCOL: Isothermal titration calorimetry (ITC) of galectin-3-ligand interaction
# Type: binding
# TEST PARAMETERS: galectin-3 100 µM, PBS, 25 °C, One set of sites model, mean ± SEM, n=3
PROPERTY: pKd
Entry type: numeric. Quantity: pKd, the -log10 of concentration in molar units.

Task item: Return reported pKd. Input molecule: CC(=O)N[C@H]1C(O)O[C@H](CO)[C@@H](O[C@@H]2O[C@H](CO)[C@H](O)[C@H](O)[C@H]2O)[C@@H]1O (stereo partly drawn) [LacNAc, N-Acetyl-D-lactosamine]
Reply: 4.62

----------
# TESTED TARGET: galectin-4 (Homo sapiens)
# Construct: 6xHis-SUMO (N, cleaved yes); made in house; host or cells: E. coli BL21(DE3)
# Sequence (P56470 whole entry): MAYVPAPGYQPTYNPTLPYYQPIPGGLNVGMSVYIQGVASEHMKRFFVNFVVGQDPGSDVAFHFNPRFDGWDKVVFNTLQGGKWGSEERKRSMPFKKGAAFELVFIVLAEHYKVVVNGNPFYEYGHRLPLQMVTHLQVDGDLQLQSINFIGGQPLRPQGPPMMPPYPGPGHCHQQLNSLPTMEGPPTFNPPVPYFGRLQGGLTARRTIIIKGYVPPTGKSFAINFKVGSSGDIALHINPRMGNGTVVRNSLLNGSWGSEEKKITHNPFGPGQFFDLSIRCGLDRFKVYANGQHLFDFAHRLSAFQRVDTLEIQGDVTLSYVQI
# MEASUREMENT PROTOCOL: ITC of galectin-4-ligand interaction
# Format: binding
# TEST PARAMETERS: full-length galectin-4 100 µM, PBS, 25 °C, read-out: KD
PROPERTY: pKd
Entry type: numeric. Quantity: pKd, the -log10 of concentration in molar units.

Task item: Please indicate recorded pKd of CC(=O)N[C@H]1C(O)O[C@H](CO)[C@@H](O[C@@H]2O[C@H](CO)[C@H](O)[C@H](O)[C@H]2O)[C@@H]1O (stereo partly shown) measured with galectin-4 (Homo sapiens).
Reply: 2.46
